Attribution: patent US20230255934A1

Target: Nurr1 LBD Arg563Ala + His516Ala (Homo sapiens, UniProt P43354, H516A/R563A)
Construct: Mutants of LAP2 Nurr1 were prepared by GenScript starting from LAP2 Nurr1 vector; made in house
Sequence (P43354 with tags, fused parts or gaps H516A/R563A): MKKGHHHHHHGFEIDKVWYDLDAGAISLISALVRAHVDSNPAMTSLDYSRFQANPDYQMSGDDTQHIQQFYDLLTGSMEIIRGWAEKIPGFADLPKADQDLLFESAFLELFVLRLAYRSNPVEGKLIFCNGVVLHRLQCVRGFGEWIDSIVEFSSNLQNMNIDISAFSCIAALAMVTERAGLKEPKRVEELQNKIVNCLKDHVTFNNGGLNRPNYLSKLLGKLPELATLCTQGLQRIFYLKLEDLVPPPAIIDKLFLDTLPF
Experiment: MST binding to Arg563Ala + His516Ala double mutant Nurr1 LBD
Settings: Table 1, Nurr1 variant H516A/R563A; read-out: KD
testReadout: Kd (µM)
Provide the reading as a plain figure in µM.

Record request: Kd value, item `Clc1cc2cc[nH]c2cc1Cl`
18

Now consider `Brc1cc2cc[nH]c2cc1Br` and answer again.
16

Now consider `Clc1ccc2[nH]ccc2c1` and answer again.
8
